- Measured target: human PD-1 / PD-L1-Ig binding on Jurkat cell line over-expressing human PD-1 (Jurkat-PD-1) (Homo sapiens, UniProt Q15116)
- Construct: expressed in transfected cells; host or cells: Jurkat
- Sequence (Q15116 25-288): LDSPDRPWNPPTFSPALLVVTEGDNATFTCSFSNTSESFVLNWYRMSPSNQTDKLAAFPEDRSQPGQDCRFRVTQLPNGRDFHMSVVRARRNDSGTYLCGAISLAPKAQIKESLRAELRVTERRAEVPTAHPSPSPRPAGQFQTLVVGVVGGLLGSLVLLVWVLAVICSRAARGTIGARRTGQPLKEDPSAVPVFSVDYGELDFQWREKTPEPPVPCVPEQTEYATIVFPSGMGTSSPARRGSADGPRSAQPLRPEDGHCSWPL
- Test protocol: Jurkat-PD-1 Cell Binding High-Content Screening Assay (CBA)
- Type: cell-based
- Particulars: Jurkat-PD-1 cells, PE-labeled PD-L1-Ig 20 nM final; read-out: Jurkat HPD1_PDL1 IC50
Where a SMILES comes first, the peptide text is derived from it. Bridges are numbered along the chain shown (N, C = ends). [ ]: non-standard residue; d: D form. Bip = N[C@@H](Cc1ccc(-c2ccccc2)cc1)C(=O)O; Cha = N[C@@H](CC1CCCCC1)C(=O)O; Orn = NCCC[C@H](N)C(=O)O
Catalogue of IC50 readings, one per entry.
Property label: IC50 (µM)

>>> endpoint_result("CC(C)C[C@H]1NC(=O)[C@H](CCCN)NC(=O)[C@H](CCN)NC(=O)[C@H](Cc2ccc(-c3ccccc3)cc2)NC(=O)[C@H](C(C)C)NC(=O)[C@H](Cc2c[nH]c3ccccc23)NC(=O)[C@H](CC(=O)O)NC(=O)[C@H](Cc2ccc(C(=O)O)cc2)NC(=O)[C@H](Cc2ccc(OCC(=O)O)cc2)NC(=O)CSC[C@@H](C(=O)N[C@@H](C)C(N)=O)NC(=O)[C@H]([C@@H](C)O)NC(=O)[C@H](C(C)C)NC(=O)[C@H](CC2CCCCC2)NC(=O)[C@H](CCN)NC1=O")
0.0191
>>> endpoint_result("CC[C@H](C)[C@@H]1NC(=O)[C@H](Cc2ccc(-c3ccccc3)cc2)NC(=O)[C@H](C(C)C)NC(=O)[C@H](Cc2cccc(Cl)c2)NC(=O)[C@H](CC(=O)O)NC(=O)[C@H](Cc2ccncc2)NC(=O)[C@H](CN)NC(=O)CSC[C@@H](C(=O)N[C@@H](C)C(N)=O)NC(=O)[C@H]([C@@H](C)O)NC(=O)[C@H](C(C)C)NC(=O)[C@H](CC2CCCCC2)NC(=O)[C@H](CCN)NC(=O)[C@@H](CC(C)C)NC(=O)[C@H](CCCN)NC1=O")
0.0202
>>> endpoint_result("CC(C)C[C@H]1NC(=O)[C@H](CCCN)NC(=O)[C@H](CCC(=O)O)NC(=O)[C@H](Cc2ccc(-c3ccccc3)cc2)NC(=O)[C@H](C(C)C)NC(=O)[C@H](Cc2c[nH]c3ccccc23)NC(=O)[C@H](CC(=O)O)NC(=O)[C@H](Cc2ccc(OCC(=O)O)cc2)NC(=O)[C@H](Cc2ccc(OCC(=O)O)cc2)NC(=O)CSC[C@@H](C(=O)N[C@@H](C)C(N)=O)NC(=O)[C@H]([C@@H](C)O)NC(=O)[C@H](C(C)C)NC(=O)[C@H](CC2CCCCC2)NC(=O)[C@H](Cc2cnc[nH]2)NC1=O")
0.023
>>> endpoint_result("CC(C)C[C@H]1NC(=O)[C@H](CCCN)NC(=O)[C@H](CCCNC(N)=O)NC(=O)[C@H](Cc2ccc(-c3ccccc3)cc2)NC(=O)[C@H](C(C)C)NC(=O)[C@H](Cc2c[nH]c3ccccc23)NC(=O)[C@H](CC(=O)O)NC(=O)[C@H](Cc2ccsc2)NC(=O)[C@H](CN)NC(=O)CSC[C@@H](C(=O)N[C@@H](C)C(N)=O)NC(=O)[C@H]([C@@H](C)O)NC(=O)[C@H](C(C)C)NC(=O)[C@H](CC2CCCCC2)NC(=O)[C@H](CCN)NC1=O")
0.0212
>>> endpoint_result("CC(C)C[C@@H]1NC(=O)[C@H](Cc2c[nH]c3ccccc23)NC(=O)[C@H](CC(=O)O)NC(=O)[C@H](Cc2ccc(O)cc2)NC(=O)[C@H](Cc2ccccc2)NC(=O)CSC[C@@H](C(=O)NCC(N)=O)NC(=O)[C@H](CO)NC(=O)[C@H](C(C)C)NC(=O)[C@H](CC2CCCCC2)NC(=O)[C@H](CC(N)=O)NC(=O)[C@@H](CC(C)C)NC(=O)[C@H](CCCN)NC(=O)[C@H](C(C)C)NC(=O)[C@H](Cc2ccc(-c3ccccc3)cc2)NC1=O [Compound 1334] ({CH2CO}-FYDWL[Bip]V[Orn][dL]N[Cha]VSCG-NH2; thioether N-14)")
0.0269
>>> endpoint_result("CC(C)C[C@H]1NC(=O)[C@H](CCCN)NC(=O)[C@H](CCC(=O)O)NC(=O)[C@H](Cc2ccc(-c3ccccc3)cc2)NC(=O)[C@H](C(C)C)NC(=O)[C@H](Cc2c[nH]c3ccccc23)NC(=O)[C@H](CC(=O)O)NC(=O)[C@H](Cc2ccc(N)cc2)NC(=O)[C@H](Cc2ccc(OCC(=O)O)cc2)NC(=O)CSC[C@@H](C(=O)N[C@@H](C)C(N)=O)NC(=O)[C@H]([C@@H](C)O)NC(=O)[C@H](C(C)C)NC(=O)[C@H](CC2CCCCC2)NC(=O)[C@H](CCN)NC1=O")
0.0194
>>> endpoint_result("CC(C)C[C@H]1NC(=O)[C@H](CCCN)NC(=O)[C@H](CCC(=O)O)NC(=O)[C@H](Cc2ccc(-c3ccccc3)cc2)NC(=O)[C@H](C(C)C)NC(=O)[C@H](Cc2ccc(F)cc2)NC(=O)[C@H](CC(=O)O)NC(=O)[C@H](Cc2ccc(OCC(=O)O)cc2)NC(=O)[C@H](CN)NC(=O)CSC[C@@H](C(=O)N[C@@H](C)C(N)=O)NC(=O)[C@H]([C@@H](C)O)NC(=O)[C@H](C(C)C)NC(=O)[C@H](CC2CCCCC2)NC(=O)[C@H](CCN)NC1=O")
0.012
>>> endpoint_result("CCC(C)[C@@H]1NC(=O)[C@H](Cc2ccc(-c3ccccc3)cc2)NC(=O)[C@H](C(C)C)NC(=O)[C@H](Cc2cccc(C)c2)NC(=O)[C@H](CC(=O)O)NC(=O)[C@H](Cc2ccc(-c3cccc(C(=O)O)c3)cc2)NC(=O)[C@H](Cc2ccc(OCC(=O)O)cc2)NC(=O)CSC[C@@H](C(=O)N[C@@H](C)C(N)=O)NC(=O)[C@H]([C@@H](C)O)NC(=O)[C@H](C(C)C)NC(=O)[C@H](CC2CCCCC2)NC(=O)[C@H](CCN)NC(=O)[C@@H](CC(C)C)NC(=O)[C@H](CCCN)NC1=O (some centres unmarked)")
0.182
